The following compounds are listed with their measured solubility kinetic values.
- details: buffer; pH 7.4; 200.0 µM
endpoint_label: solubility kinetic

compound=COc1ccccc1C(=O)Nc1ccc(Br)cc1C readout_value="< 0.7 µg/mL"
compound=O=C(NC1CC1)c1ccc(CSCc2ccccc2Cl)o1 readout_value="> 48.3 µg/mL"
compound=COc1ccc(C(=O)Nn2c(C)nc3ccccc3c2=O)cc1 readout_value="> 46.4 µg/mL"
compound=CCC(=O)N1CCN(c2ccccc2NC(=O)c2ccc([N+](=O)[O-])o2)CC1 readout_value="32.4 µg/mL"
compound=CC(=O)C1=C(C)NC(C)=C(C(C)=O)C1c1ccccc1 readout_value="35.3 µg/mL"
compound=NC(=NCCc1c[nH]c2ccccc12)NC(=O)c1ccc(F)cc1 readout_value="> 48.7 µg/mL"
compound=Fc1ccc(OCCn2cnc(Cl)c2Cl)cc1 readout_value="29.7 µg/mL"
compound=CSc1ccccc1C(=O)Nc1c(C)cccc1C readout_value="22.9 µg/mL"
compound=Cc1ccc(C(=O)N/C(=C\c2ccc(C)o2)C(=O)O)cc1 readout_value="> 42.8 µg/mL"
compound=O=C(CCNC(=O)c1ccccc1Cl)OCC(=O)c1ccccc1 readout_value="> 51.9 µg/mL"
compound=O=C(Nc1nc2ccccc2s1)c1ccc(F)cc1 readout_value="0.6 µg/mL"
compound="Cc1cn(C2CC(OC(=O)C(C)C)C(CO)O2)c(=O)[nH]c1=O (stereo not drawn)" readout_value="> 46.8 µg/mL"
compound=O=C(CSc1ncccc1C(=O)O)c1cccc(C(F)(F)F)c1 readout_value="> 51.2 µg/mL"
